B1: Hairpin Ribozyme (parent)
chain: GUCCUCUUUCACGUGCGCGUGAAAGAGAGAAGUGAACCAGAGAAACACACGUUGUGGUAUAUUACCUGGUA

# Variants of: B1
# Experimental protocol: self-cleavage, relative activity (ratio to wild type); higher = more cleavage; co-transcriptional
Overview of recorded self-cleavage for various variants
Just the number, please, no unit after it.

Mutation descriptor	self-cleavage
C46A A61U	0.171

QUERY: I am curious: what self-cleavage value has been reported for C16G A44G ?
RESULT: 0.0556

QUERY: Now consider A45G C50A and answer again.
RESULT: 0.123

QUERY: Now consider A36G A61G and answer again.
RESULT: 0.154

Origin of measurements: the RNAGym collection of RNA variant scans (doi:10.7554/elife.80360)
